// provenance: ChEMBL document CHEMBL6127017

assay.overview: Metabolic stability in human liver microsomes assessed as compound remaining at 1 uM measured after 15 mins by LC-MS/MS analysis
Assay type: ADME, Microsome
condition.info: read-out: Stability
experimental.readout: remaining at 0.25 h, 1 µM

remaining at 0.25 h, 1 µM for CCOC(=O)N1CCC(CN(Cc2ccc(Cl)cc2)Cc2ccc([N+](=O)[O-])s2)C1 (stereo not drawn) is 85.6%

According to the records, this molecule O=C(C1CC1)N1CCC(CN(Cc2ccc(Cl)c(Cl)c2)Cc2ccc([N+](=O)[O-])s2)C1 (stereo not drawn) displays remaining at 0.25 h, 1 µM of 93.2%

Field remaining at 0.25 h, 1 µM (entry O=C(C1CC1)N1CCC(CN(Cc2ccc([N+](=O)[O-])s2)Cc2ccc(F)cc2F)C1 (stereo not drawn) ) reads 106%
